The values you see were collected from patent US20260374739A1.

Each entry below lists one item and its recorded pIC50 value.
assay.target: EphB1-EphrinB2 (Rattus norvegicus, UniProt P09759)
Construct: rat EphB1-Fc residues 18-538; mouse EB2-His residues 18-232; purchased R&D Systems (EphB1-Fc); Sino Biologicals (EB2-His)
Sequence (P09759 18-538): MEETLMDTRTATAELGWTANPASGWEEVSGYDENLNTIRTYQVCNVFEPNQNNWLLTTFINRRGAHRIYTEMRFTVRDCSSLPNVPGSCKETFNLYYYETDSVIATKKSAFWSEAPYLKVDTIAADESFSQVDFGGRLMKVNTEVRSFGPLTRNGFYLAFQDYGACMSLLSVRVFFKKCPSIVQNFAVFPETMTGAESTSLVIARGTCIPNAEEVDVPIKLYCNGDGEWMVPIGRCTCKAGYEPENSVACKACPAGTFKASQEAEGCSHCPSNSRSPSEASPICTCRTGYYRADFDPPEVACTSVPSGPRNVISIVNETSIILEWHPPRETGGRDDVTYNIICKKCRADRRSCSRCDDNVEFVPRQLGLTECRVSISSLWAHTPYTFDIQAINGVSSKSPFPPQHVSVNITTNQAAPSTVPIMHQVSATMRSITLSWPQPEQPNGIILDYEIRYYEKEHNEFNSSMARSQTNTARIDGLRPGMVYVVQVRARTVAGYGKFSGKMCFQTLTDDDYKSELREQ
protocol.notes: Octet RED384, immobilized rat EphB1-Fc binding to 30 nM mouse EB2-His (400 sec / 500 sec)
Set-up: species or system mouse EphrinB2
condition.set: rEphB1-mEphrinB2; immobilized rat EphB1; 50 nM soluble mouse EphrinB2; association; absolute; read-out: Absolute Association IC50
Remember the convention: pIC50 equals -log10 of concentration in molar.

# count of solved cases: 3
molecule | measured.metric | readout.number
Oc1c(Br)cc(CN2CCOCC2)c2cccnc12 [Compound 6] | pIC50 | 4.55
Oc1ccc(CN2CCOCC2)c2cccnc12 [Compound 1, 5-(morpholinomethyl)quinolin-8-ol] | pIC50 | 4.00
O=S1(=O)CCN(Cc2ccc(O)c3ncccc23)CC1 [Compound 15] | pIC50 | 4.00

Prompt: Please tell me: pIC50 of O=[N+]([O-])c1cc(CN2CCOCC2)c2cccnc2c1O [Compound 10] , system EphB1-EphrinB2 (Rattus norvegicus, UniProt P09759)?
Response: 4.00

Prompt: Please tell me: pIC50 of Oc1ccc(CN2CCN(Cc3ccc(C(F)(F)F)cc3)CC2)c2cccnc12 [Compound 48] , system EphB1-EphrinB2 (Rattus norvegicus, UniProt P09759)?
Response: 4.00

Prompt: Please tell me: pIC50 of Oc1c(Cl)cc(CN2CCOCC2)c2cccnc12 [Compound 4] , system EphB1-EphrinB2 (Rattus norvegicus, UniProt P09759)?
Response: 4.85

----------
assay.target: EphrinB2-EphB2 (Homo sapiens, UniProt P29323)
Construct: soluble human EphB1-His, EphB2-His, and EphB4-His ectodomains; commercially available human EphrinB1-Fc (EB1), EphrinB2-Fc (EB2), and EphrinB3-Fc (EB3) ectodomain proteins; purchased
Sequence (P29323 19-543 limits assumed): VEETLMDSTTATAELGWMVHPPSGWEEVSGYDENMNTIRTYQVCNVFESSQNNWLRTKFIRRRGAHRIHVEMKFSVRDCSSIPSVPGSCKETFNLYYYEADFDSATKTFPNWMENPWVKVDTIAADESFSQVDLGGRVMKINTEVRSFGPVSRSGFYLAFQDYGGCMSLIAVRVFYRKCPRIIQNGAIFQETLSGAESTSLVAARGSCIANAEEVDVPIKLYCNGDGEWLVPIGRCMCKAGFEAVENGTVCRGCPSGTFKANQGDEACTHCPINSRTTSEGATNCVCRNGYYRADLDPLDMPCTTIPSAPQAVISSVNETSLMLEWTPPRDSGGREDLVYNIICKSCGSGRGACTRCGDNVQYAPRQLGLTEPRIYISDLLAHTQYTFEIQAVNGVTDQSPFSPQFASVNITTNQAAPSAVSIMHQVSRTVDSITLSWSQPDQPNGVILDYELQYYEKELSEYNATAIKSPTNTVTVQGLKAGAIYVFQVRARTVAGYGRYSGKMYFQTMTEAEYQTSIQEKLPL
protocol.notes: Octet tetramerization inhibition, immobilized human EphrinB2 binding to 50 nM soluble human EphB2
condition.set: Relative Dissociation IC50 (450 sec), Table A, EphrinB2-EphB2
Each entry below lists one item and its recorded IC50 value.
Output spec: scalar in nM, unitless text.

# count of solved cases: 4
compound | unit.annotation | IC50
O=C(Cc1ccccc1)Nc1ccc(N2CCN(Cc3ccc(O)c4ncccc34)CC2)cc1 | nM | 930
Oc1c(I)cc(CN2CCOCC2)c2cccnc12 | nM | 1070
O=[N+]([O-])c1cc(CN2CCS(=O)(=O)CC2)c2cccnc2c1O | nM | 2090
Oc1c(Cl)cc(CN2CCOCC2)c2cccnc12 [Compound 4] | nM | 550

Prompt: Suppose we examine the compound O=S1(=O)CCN(Cc2cc(I)c(O)c3ncccc23)CC1 ; what IC50 value has been reported?
Response: 810

Prompt: Suppose we examine the compound O=C(c1ccc(O)c2ncccc12)N1CCOCC1 ; what IC50 value has been reported?
Response: 1620

Prompt: Suppose we examine the compound Oc1c(Br)cc(CN2CCN(c3ccc(Br)cc3)CC2)c2cccnc12 ; what IC50 value has been reported?
Response: 340

Prompt: Suppose we examine the compound CC(=O)Nc1ccc(N2CCN(Cc3ccc(O)c4ncccc34)CC2)cc1 ; what IC50 value has been reported?
Response: 1950

----------
Each entry below lists one item and its recorded IC50 value.
assay.target: EphrinB2-EphB2 (Homo sapiens, UniProt P29323)
Construct: soluble human EphB1-His, EphB2-His, and EphB4-His ectodomains; commercially available human EphrinB1-Fc (EB1), EphrinB2-Fc (EB2), and EphrinB3-Fc (EB3) ectodomain proteins; purchased
protocol.notes: Octet tetramerization inhibition, immobilized human EphrinB2 binding to 50 nM soluble human EphB2
condition.set: Relative AUC/IC50, Table A, EphrinB2-EphB2; compound 7: association only
Output spec: scalar in nM, unitless text.

# count of solved cases: 3
compound | IC50, nM
O=S1(=O)CCN(Cc2cc(Br)c(O)c3ncccc23)CC1 [Compound 17] | 810
Oc1ccc(CN2CCOCC2)c2cccnc12 [Compound 2] | 2290
Cc1ccc2c(CN3CCOCC3)cc(Br)c(O)c2n1 [Compound 57] | 2240

Prompt: Suppose we examine the compound O=C(Cc1ccccc1)Nc1ccc(N2CCN(Cc3ccc(O)c4ncccc34)CC2)cc1 [Compound 51] ; what IC50 value has been reported?
Response: 1020

Prompt: Suppose we examine the compound Oc1c(I)cc(CN2CCN(Cc3ccc(Br)cc3)CC2)c2cccnc12 [Compound 46] ; what IC50 value has been reported?
Response: 520

Prompt: Suppose we examine the compound Oc1ccc(CN2CCN(Cc3ccc(Br)cc3)CC2)c2cccnc12 [Compound 43] ; what IC50 value has been reported?
Response: 2240

Prompt: Suppose we examine the compound O=S1(=O)CCN(Cc2ccc(O)c3ncccc23)CC1 [Compound 15] ; what IC50 value has been reported?
Response: 620

----------
assay.target: EphrinB2-EphB2 (Homo sapiens, UniProt P29323)
Construct: soluble human EphB1-His, EphB2-His, and EphB4-His ectodomains; commercially available human EphrinB1-Fc (EB1), EphrinB2-Fc (EB2), and EphrinB3-Fc (EB3) ectodomain proteins; purchased
Sequence (P29323 19-543 limits assumed): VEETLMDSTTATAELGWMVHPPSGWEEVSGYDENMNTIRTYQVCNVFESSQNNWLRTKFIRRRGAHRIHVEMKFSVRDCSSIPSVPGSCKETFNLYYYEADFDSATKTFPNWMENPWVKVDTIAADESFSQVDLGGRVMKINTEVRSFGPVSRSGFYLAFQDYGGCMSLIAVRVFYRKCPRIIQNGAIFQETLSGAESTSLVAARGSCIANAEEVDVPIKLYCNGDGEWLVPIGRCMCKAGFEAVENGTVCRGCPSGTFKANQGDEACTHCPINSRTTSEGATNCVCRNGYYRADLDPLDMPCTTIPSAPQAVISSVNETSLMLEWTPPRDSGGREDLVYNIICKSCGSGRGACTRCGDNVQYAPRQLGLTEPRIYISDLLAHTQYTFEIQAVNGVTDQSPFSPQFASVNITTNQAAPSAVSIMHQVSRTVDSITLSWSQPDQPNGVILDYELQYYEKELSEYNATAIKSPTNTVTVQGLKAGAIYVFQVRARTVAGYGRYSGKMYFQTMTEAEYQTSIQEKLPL
protocol.notes: Octet tetramerization inhibition, immobilized human EphrinB2 binding to 50 nM soluble human EphB2
condition.set: tetramerization inhibitor IC50 (relative), association step; surmountable tetramer
measured.metric: IC50

molecule | result
OCc1ccc2c(CN3CCOCC3)cc(Br)c(O)c2n1 | ~1600 nM
Oc1ccc(CN2CCN(c3ccccc3)CC2)c2cccnc12 | ~3000 nM
Oc1c(Br)cc(CN2CCN(c3ccc(Br)cc3)CC2)c2cccnc12 | ~300 nM
Oc1c(I)cc(CN2CCOCC2)c2cccnc12 | ~600 nM

Prompt: Suppose we examine the molecule COc1ccccc1N1CCN(Cc2cc(Br)c(O)c3ncccc23)CC1 ; what IC50 value has been reported?
Response: ~200 nM

Prompt: Suppose we examine the molecule O=C(c1ccc(O)c2ncccc12)N1CCOCC1 ; what IC50 value has been reported?
Response: ~1600 nM

Prompt: Suppose we examine the molecule Oc1c(Cl)cc(CN2CCOCC2)c2cccnc12 ; what IC50 value has been reported?
Response: ~500 nM

Prompt: Suppose we examine the molecule Oc1ccc(CN2CCOCC2)c2cccnc12 ; what IC50 value has been reported?
Response: > 1600 nM

Prompt: Suppose we examine the molecule O=S1(=O)CCN(Cc2cc(Br)c(O)c3ncccc23)CC1 ; what IC50 value has been reported?
Response: ~800 nM

----------
assay.target: EphrinB2-EphB1 (Homo sapiens, UniProt P54762)
Construct: soluble human EphB1-His, EphB2-His, and EphB4-His ectodomains; commercially available human EphrinB1-Fc (EB1), EphrinB2-Fc (EB2), and EphrinB3-Fc (EB3) ectodomain proteins; purchased
Sequence (P54762 18-540 limits assumed): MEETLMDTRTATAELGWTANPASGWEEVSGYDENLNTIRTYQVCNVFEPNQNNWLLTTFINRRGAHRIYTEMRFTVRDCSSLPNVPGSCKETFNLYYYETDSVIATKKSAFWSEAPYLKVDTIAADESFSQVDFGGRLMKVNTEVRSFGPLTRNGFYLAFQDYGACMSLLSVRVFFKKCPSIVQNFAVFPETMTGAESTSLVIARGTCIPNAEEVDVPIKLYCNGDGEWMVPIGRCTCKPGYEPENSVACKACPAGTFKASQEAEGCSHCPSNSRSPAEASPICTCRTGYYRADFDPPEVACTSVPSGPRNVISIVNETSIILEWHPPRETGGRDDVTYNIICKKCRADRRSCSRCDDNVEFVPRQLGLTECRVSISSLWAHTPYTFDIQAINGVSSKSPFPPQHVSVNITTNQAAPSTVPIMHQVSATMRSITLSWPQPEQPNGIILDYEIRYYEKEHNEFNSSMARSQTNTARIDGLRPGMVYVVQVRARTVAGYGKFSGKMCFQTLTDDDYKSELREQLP
protocol.notes: Octet 80 sec association/500 sec dissociation, immobilized human EphrinB2-Fc binding to soluble human EphB1-His
condition.set: EphB1; 25 nM EphB1; 3.2 μM compound; A20-I as max control; 0* = less than 0, no inhibition; read-out: % Inhibition: Association ONLY (80 sec)
Kindly return rule met if reported inhibition at 3.2 µM is no lower than 20%; return rule not met if it is lower.

compound | assay.target | class.name
O=S1(=O)CCN(Cc2cc(Br)c(O)c3ncccc23)CC1 [Compound 16] | EphrinB2-EphB1 (Homo sapiens, UniProt P54762) | rule met
O=[N+]([O-])c1cc(CN2CCS(=O)(=O)CC2)c2cccnc2c1O [Compound 20] | EphrinB2-EphB1 (Homo sapiens, UniProt P54762) | rule met
COc1ccc2[nH]cc(C(=O)N3CCOCC3)c2c1 [Compound 63] | EphrinB2-EphB1 (Homo sapiens, UniProt P54762) | rule not met
Oc1c(I)cc(CN2CCOCC2)c2cccnc12 [Compound 7, 7-iodo-5-(morpholinomethyl)quinolin-8-ol] | EphrinB2-EphB1 (Homo sapiens, UniProt P54762) | rule met
Oc1c(Br)cc(CN2CCN(Cc3ccc(Br)cc3)CC2)c2cccnc12 [Compound 44] | EphrinB2-EphB1 (Homo sapiens, UniProt P54762) | rule met

# ---- query compound ----
Prompt: Threshold query (inhibition at 3.2 µM >= 20%) on Oc1ccc(CN2CCN(Cc3ccccc3)CC2)c2cccnc12 [Compound 41]
Response: rule not met
